The following are reported pIC50 results, target or system USP19 (Homo sapiens (Human), UniProt O94966).
pIC50: −log10 of the molar value.

Field: example entries. Status: answers known.
1) CN(C)C(=O)c1cn(CC2(O)CCN(C(=O)c3nc(C(F)(F)F)cs3)CC23CCCC3)c(=O)cc1-c1ccccc1 (stereo not shown) [Example 245]; 4.30 to 5.30
2) C[C@H](CC(=O)N1CCC(O)(Cn2cc(-c3ccc(CN)cc3)c(-c3ccccc3)cc2=O)CC1)c1ccccc1 [Example 86]; 4.30 to 5.30
3) C[C@H](CC1CCCCC1)C(=O)N1CCC(O)(Cn2cc(C(=O)N3CCNCC3)c(-c3ccccc3)cc2=O)C2(CCCCC2)C1 (stereo partly shown) [Example 238]; > 6.30
4) C[C@H](CC(=O)N1CCC(O)(Cn2cnc(-c3cccc4ccccc34)cc2=O)CC1)c1ccccc1 [Example 20]; 4.30 to 5.30

Ask: Return pIC50 measured with USP19 (Homo sapiens (Human), UniProt O94966) given this compound: C=C(C)c1cc(=O)n(CC2(O)CCN(C(=O)C[C@@H](C)c3ccccc3)CC2)cc1-c1ccccc1 [Example 12]
Sequence (O94966 whole entry): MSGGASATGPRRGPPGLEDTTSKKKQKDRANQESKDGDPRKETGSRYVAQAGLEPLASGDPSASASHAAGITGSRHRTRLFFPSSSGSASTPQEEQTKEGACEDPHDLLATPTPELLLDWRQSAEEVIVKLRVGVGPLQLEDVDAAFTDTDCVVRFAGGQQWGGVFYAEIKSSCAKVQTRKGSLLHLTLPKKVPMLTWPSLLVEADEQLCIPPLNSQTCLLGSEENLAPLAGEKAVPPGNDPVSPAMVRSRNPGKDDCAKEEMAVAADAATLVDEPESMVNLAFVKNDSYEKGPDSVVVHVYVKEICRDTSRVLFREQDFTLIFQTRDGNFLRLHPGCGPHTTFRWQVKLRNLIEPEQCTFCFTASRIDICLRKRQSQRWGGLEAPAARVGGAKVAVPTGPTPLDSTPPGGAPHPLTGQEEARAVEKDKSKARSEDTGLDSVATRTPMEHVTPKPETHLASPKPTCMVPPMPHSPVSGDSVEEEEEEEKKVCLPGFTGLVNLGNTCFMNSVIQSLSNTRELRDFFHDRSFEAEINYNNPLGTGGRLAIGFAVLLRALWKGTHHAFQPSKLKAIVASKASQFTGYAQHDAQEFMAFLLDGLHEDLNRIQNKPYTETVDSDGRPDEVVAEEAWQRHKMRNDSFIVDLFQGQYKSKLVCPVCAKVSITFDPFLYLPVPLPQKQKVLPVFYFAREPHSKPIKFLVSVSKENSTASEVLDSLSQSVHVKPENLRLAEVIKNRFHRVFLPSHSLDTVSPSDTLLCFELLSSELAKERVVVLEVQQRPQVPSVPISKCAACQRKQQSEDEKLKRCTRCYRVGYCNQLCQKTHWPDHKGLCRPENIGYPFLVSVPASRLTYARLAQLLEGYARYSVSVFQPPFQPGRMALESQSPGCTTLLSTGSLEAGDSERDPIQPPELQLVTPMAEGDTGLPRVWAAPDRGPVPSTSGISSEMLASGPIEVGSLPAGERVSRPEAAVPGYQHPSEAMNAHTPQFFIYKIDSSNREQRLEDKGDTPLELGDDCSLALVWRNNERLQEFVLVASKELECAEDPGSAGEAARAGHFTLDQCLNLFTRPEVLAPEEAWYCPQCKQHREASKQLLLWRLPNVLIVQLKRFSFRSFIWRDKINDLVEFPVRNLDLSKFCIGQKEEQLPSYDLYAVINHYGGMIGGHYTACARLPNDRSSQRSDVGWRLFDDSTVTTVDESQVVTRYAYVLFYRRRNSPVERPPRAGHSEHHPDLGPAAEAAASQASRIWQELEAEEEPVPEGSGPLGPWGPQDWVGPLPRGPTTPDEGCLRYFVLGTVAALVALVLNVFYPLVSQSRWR
Reply: 4.30 to 5.30

Ask: Return pIC50 measured with USP19 (Homo sapiens (Human), UniProt O94966) given this compound: Cc1cn(CC2(O)CCN(C(=O)C[C@@H](C)c3ccccc3)CC2)c(=O)cc1-c1ccccc1 [Example 111]
Reply: 3.60 to 4.30

Ask: Return pIC50 measured with USP19 (Homo sapiens (Human), UniProt O94966) given this compound: CN(C)C(=O)c1cn(CC2(O)CCN(C(=O)c3c[nH]nc3C3CCCCC3)CC23CCCC3)c(=O)cc1-c1ccccc1 (stereo not shown) [Example 189]
Reply: 5.30 to 6.30

----------
pIC50: −log10 of the molar value.
The following are reported pIC50 results, target or system USP19 (Homo sapiens (Human), UniProt O94966).

Field: example entries. Status: answers known.
1. CC(C)CC1(C(=O)N2CCC(O)(Cn3cnc(-c4ccccc4F)cc3=O)C(C)(C)C2)CC1 (racemic) [Example 69]; 4.30 to 5.30
2. C[C@H](CC1CCCCC1)C(=O)N1CCC(O)(Cn2cc(C(=O)N(C)C)c(-c3ccccc3CN)cc2=O)C2(CCCC2)C1 (stereo partly drawn) [Example 161]; 4.30 to 5.30

We next turn to a different compound, shown below.
Ask: Return pIC50 measured with USP19 (Homo sapiens (Human), UniProt O94966) given this compound: CC(OC1CCCCC1)C(=O)N1CCC(O)(Cn2cnc(-c3ccccc3F)cc2=O)C(C)(C)C1 (stereo not drawn) [Example 126]
Reply: 3.60 to 4.30

----------
The following are reported pIC50 results, target or system USP19 (Homo sapiens (Human)).
pIC50: −log10 of the molar value.

1. C[C@H](CC1CCC1)C(=O)N1CC[C@@](O)(Cn2cc(C(=O)N(C)C)c(-c3ccccc3F)cc2=O)C2(CCCC2)C1; > 6.30

Ask: I would be grateful if you could share the reported pIC50 for "CN(C)C(=O)c1cn(C[C@@]2(O)CCN(C(=O)[C@H](CCO)CC3CCCCC3)CC2(C)C)c(=O)cc1-c1ccccc1" .
Reply: 4.30 to 5.30

Ask: I would be grateful if you could share the reported pIC50 for "C[C@H](CC(F)(F)F)C(=O)N1CC[C@@](O)(Cn2cc(C(=O)N3CCN(C)CC3)c(-c3ccccc3)cc2=O)C2(CCCC2)C1" .
Reply: > 6.30
